Test system: Agelas dispar
EXPERIMENT NOTES: Distribution in Carribean Agelas dispar was determined and expressed as % dry weight
Format: functional
Binary classification by Dry weight, with 0.2% as an inclusive lower bound for y; all other cases are n.

>>> class("Nc1ncc(/C=C/CNC(=O)c2cc(Br)c(Br)[nH]2)[nH]1")
"y"
>>> class("C[N+]1=CNC[C@]1(C)CC(NC(=O)c1cc(Br)c[nH]1)C(=O)[O-] (some centres not stated)")
"n"
>>> class("NC1=N/C(=C\\C(O)CNC(=O)c2cc(Br)c(Br)[nH]2)C(=O)N1 (configuration not stated)")
"y"
>>> class("NC1=N/C(=C\\CCNC(=O)c2cc(Br)c(Br)[nH]2)C(=O)N1")
"y"
>>> class("Nc1nc([C@H]2[C@H](CNC(=O)c3cc(Br)c[nH]3)[C@@H](CNC(=O)c3cc(Br)c[nH]3)[C@@H]2c2c[nH]c(N)n2)c[nH]1")
"y"

Origin of the recorded values: ChEMBL document CHEMBL1150555
